// IC50 lookup, one value per entry
system: MDAMB231 breast cancer cell line; test: In vitro antiproliferative assay (MTT assay), MDAMB231; assay type: cell-based; conditions: 48 hrs drug incubation, read-out: IC50 in micromolar, MDAMB231 (MTT assay)
The figure you give is taken to be in µM; do not add the unit.

INSERT INTO assay_data (compound, measurement_kind, unit_string, assay_result) VALUES
  ('CCOC(=O)N1CCN(CCCCCCOc2c3c(c(-c4ccc5c(c4)OCO5)c4cc(OC)c(OC)cc24)C(=O)OC3)CC1 [Formula III]', 'IC50', 'µM', 6.68),
  ('c1ccc2c(-c3ccc4c(c3)OCO4)ccc(OCCCCCCN3CCOCC3)c2c1 [Formula IV]', 'IC50', 'µM', 3.86);

## Input Fill blank: measured IC50 of the compound N.N.[Cl][Pt][Cl] [Cisplatin, reference compound] is ____.
## Output 29.4

## Input Entry under review: COc1cc2c(OCCCCN3CCOCC3)c3c(c(-c4ccc5c(c4)OCO5)c2cc1OC)C(=O)OC3 [Formula VI] . Reported IC50?
## Output 10.9

====

system: PC3 spheres (cancer stem cells); experiment: In vitro sphere-forming assay (cancer stem cells), PC3 in Prostosphere media; conditions: 0.25 uM; 2000 cells/well; n = 6 ± S.D
3D sphere count of PC3 in Prostosphere media values, listed per item

INSERT INTO assay_data (smiles_structure, assay_result) VALUES
  ('CCOC(=O)N1CCN(CCCCCCOc2c3c(c(-c4ccc5c(c4)OCO5)c4cc(OC)c(OC)cc24)C(=O)OC3)CC1', '38(±4)'),
  ('COc1cc2c(OCCCCN3CCOCC3)c3c(c(-c4ccc5c(c4)OCO5)c2cc1OC)C(=O)OC3', '41(±2)'),
  ('c1cc2c(cc1-c1ccc(OCCCCCCNC3CCCCC3)c3c1CCCC3)OCO2', '39(±3)');

## Input Requested read-out: 3D sphere count of PC3 in Prostosphere media. Entry: c1cnc2c(OCCCCCCN3CCOCC3)ccc(-c3ccc4c(c3)OCO4)c2c1
## Output 42(±4)

## Input Consider the compound shown here: c1ccc2c(-c3ccc4c(c3)OCO4)ccc(OCCCCCCN3CCOCC3)c2c1 What is its recorded 3D sphere count of PC3 in Prostosphere media?
## Output 35(±3)

## Input Look at this compound and give its reported 3D sphere count of PC3 in Prostosphere media. Cl.c1ccc2c(-c3ccc4c(c3)OCO4)ccc(OCCCCCCN3CCOCC3)c2c1
## Output 49(±3)

## Input I have this compound here, C=CCNCCCCCCOc1ccc(-c2ccc3c(c2)OCO3)c2c1CCCC2 , and I need its recorded 3D sphere count of PC3 in Prostosphere media.
## Output 36(±3)

## Input Query (compound): c1cc2c(cc1-c1ccc(OCCCCCCN3CCOCC3)c3c1CCCC3)OCO2 ; field requested: 3D sphere count of PC3 in Prostosphere media
## Output 33(±4)

====

test system: DU145 prostate cancer cell line; test: In vitro antiproliferative assay (MTT assay), DU145; type: cell-based; conditions: 48 hrs drug incubation, read-out: IC50 in micromolar, DU145 (MTT assay)
MEASUREMENT KIND: IC50 (µM)
Note: unit µM is implicit; provide only the numeric part.

Below, each entry is followed by its recorded IC50 result.
INSERT INTO results (molecule, measurement_kind, unit_string, assay_result) VALUES
  ('N.N.[Cl][Pt][Cl] [Cisplatin, reference compound]', 'IC50', 'µM', 29.8),
  ('COc1cc2c(OCCCCN3CCOCC3)c3c(c(-c4ccc5c(c4)OCO5)c2cc1OC)C(=O)OC3', 'IC50', 'µM', 4.05),
  ('CCOC(=O)N1CCN(CCCCCCOc2c3c(c(-c4ccc5c(c4)OCO5)c4cc(OC)c(OC)cc24)C(=O)OC3)CC1', 'IC50', 'µM', 5.41);

Would you kindly look at the next entry?
## Input Endpoint output: IC50 of c1ccc2c(-c3ccc4c(c3)OCO4)ccc(OCCCCCCN3CCOCC3)c2c1 . Value?
## Output 3.16

====

Measured viability at 25 µM values are reported for all entries that follow.
tested on: PC3 spheres (cancer stem cells); experiment: In vitro sphere-forming assay (cancer stem cells), PC3 in Prostosphere media; details: read-out: % Viability of spheres (PC3), 25 uM; GCD = 100% viability
Use % as the unit, but write only the number.

INSERT INTO measurements (molecule, assay_result) VALUES
  ('c1ccc2c(-c3ccc4c(c3)OCO4)ccc(OCCCCCCN3CCOCC3)c2c1 [Formula IV]', 29),
  ('O=C1OCc2c1c(-c1ccc3c(c1)OCO3)c1cc3c(cc1c2OCCN1CCOCC1)OCO3 [Formula XI]', 0),
  ('CCOC(=O)N1CCN(CCCCCCOc2c3c(c(-c4ccc5c(c4)OCO5)c4cc(OC)c(OC)cc24)C(=O)OC3)CC1 [Formula III]', 29),
  ('c1cnc2c(OCCCCCCN3CCOCC3)ccc(-c3ccc4c(c3)OCO4)c2c1 [Formula XVI]', 30),
  ('COc1cc2c(OCCCCN3CCOCC3)c3c(c(-c4ccc5c(c4)OCO5)c2cc1OC)C(=O)OC3 [Formula VI]', 31);

## Input Please report the recorded viability at 25 µM for c1ccc2c(-c3ccc4c(c3)OCO4)ccc(OCCCCN3CCOCC3)c2c1 [Formula VIII] .
## Output 34

## Input What does the record list as viability at 25 µM for CN1CCN(CCCCOc2ccc(-c3ccc4c(c3)OCO4)c3c2CCCC3)CC1 [Formula XIX] ?
## Output 15

====

test system: PC3 prostate cancer cell line; experiment: Soft agar colony-formation assay, PC3; assay type: cell-based; settings: 168 h, 1 week, Alamar Blue, read-out: IC50 in micromolar, PC3 (Soft Agar Assay)
Counter-ions that a name gives are not always drawn.
MEASUREMENT KIND: pIC50
Keep it numeric: pIC50 is minus log10 of the concentration in mol/L.

Example results:
INSERT INTO measurements (compound, assay_result) VALUES
  ('c1cc2c(cc1-c1ccc(OCCCCCCNC3CCCCC3)c3c1CCCC3)OCO2', 5.58),
  ('c1ccc2c(-c3ccc4c(c3)OCO4)ccc(OCCCCNC3CCCCC3)c2c1', 6.40),
  ('CCOC(=O)N1CCN(CCCCCCOc2c3c(c(-c4ccc5c(c4)OCO5)c4cc(OC)c(OC)cc24)C(=O)OC3)CC1 [Formula IX, Hydrochloride]', 5.48);

## Input If you can, please state the reported pIC50 value of c1ccc2c(-c3ccc4c(c3)OCO4)ccc(OCCCCN3CCOCC3)c2c1 .
## Output 5.68

## Input Given the compound O=C(CCCOc1ccc(-c2ccc3c(c2)OCO3)c2ccccc12)N1CCOCC1 , what is its reported pIC50?
## Output 5.51

## Input Report pIC50 for COc1cc2c(OCCCCN3CCOCC3)c3c(c(-c4ccc5c(c4)OCO5)c2cc1OC)C(=O)OC3.Cl [Formula VII, Hydrochloride] please.
## Output 5.57

## Input GET /values?readout=pIC50&item= COc1cccc(-c2ccc(OCCN3CCOCC3)c3ccccc23)c1
## Output 5.39

## Input Item CN1CCN(CCCCOc2ccc(-c3ccc4c(c3)OCO4)c3c2CCCC3)CC1 has what recorded pIC50?
## Output 5.29

====

# 3D sphere count of PC3 in Prostosphere media listing for each entry below
test system: PC3 spheres (cancer stem cells); assay: In vitro sphere-forming assay (cancer stem cells), PC3 in Prostosphere media; conditions: 25 uM; 2000 cells/well; n = 6 ± S.D

Worked cases, 3D sphere count of PC3 in Prostosphere media given:
INSERT INTO results (smiles_structure, assay_result) VALUES
  ('c1cc2c(cc1-c1ccc(OCCCCCCNC3CCCCC3)c3c1CCCC3)OCO2', '19(±3)'),
  ('c1ccc2c(-c3ccc4c(c3)OCO4)ccc(OCCN3CCOCC3)c2c1', '28(±3)');

## Input Find the recorded 3D sphere count of PC3 in Prostosphere media belonging to O=C1OCc2c1c(-c1ccc3c(c1)OCO3)c1cc3c(cc1c2OCCN1CCOCC1)OCO3 and report it.
## Output 0(±0)

## Input Requested field: 3D sphere count of PC3 in Prostosphere media. Item: C=CCNCCCCCCOc1ccc(-c2ccc3c(c2)OCO3)c2c1CCCC2
## Output 14(±3)

## Input # input compound: COc1cc2c(OCCCCN3CCOCC3)c3c(c(-c4ccc5c(c4)OCO5)c2cc1OC)C(=O)OC3 ; wanted: its 3D sphere count of PC3 in Prostosphere media
## Output 27(±2)

## Input For Cl.c1ccc2c(-c3ccc4c(c3)OCO4)ccc(OCCCCCCN3CCOCC3)c2c1 , what is its reported 3D sphere count of PC3 in Prostosphere media?
## Output 30(±5)
